What Growth Rate was measured for each of the following?
Test system: Fibroblast
assayComment: Incucyte cell viability with human fibroblast; further: filed as whole numbers so only -1 and 0 and 1 occur
Type: toxicity, cell-based
reportedConditions: 18 h, 10 µM, compound concentration 10 uM, replicate number 1, timepoint 18 hours
Give bare numbers.

Past entries and their recorded results:
C/C(=C/C=C/C(C)=C/C(=O)O)c1cc(C(C)(C)C)cc(C(C)(C)C)c1OCC(F)F = 0
CCc1cc(Nc2nccc(-c3c(-c4ccc(OC)c(C(=O)Nc5c(F)cccc5F)c4)nc4ccccn34)n2)c(OC)cc1N1CCC(N2CCN(S(C)(=O)=O)CC2)CC1 = 1
CCN1CCC[C@H]1CNC(=O)c1c(OC)ccc(Br)c1OC [REMOXIPRIDE] = 1

Batch request: Growth Rate for each of the following molecules.
1. COc1ccc(CCc2nc3cc(-c4c(C)noc4C)ccc3n2C[C@H](C)N2CCOCC2)cc1Cl
2. N#Cc1cccc(C(=O)Nc2cc(-c3ccccc3)nn2-c2ccccc2)c1

## Output
1
0

###

Test system: Fibroblast
assayComment: Multiplex assay against human fibroblast
Type: toxicity, cell-based
reportedConditions: 24 h, 1 µM, compound concentration 1 uM, replicate 2
measuredMetric: Population Normal (%)
One number for each entry, in %.

// solved cases for Population Normal (%) follow
CC(C)[C@H](CO)Nc1nc(Nc2cccc(Cl)c2)c2ncn(C(C)C)c2n1 = 93
Cc1ccc(NC(=O)Nc2cc(C(F)(F)F)ccc2F)cc1Nc1ccc2c(c1)NC(=O)/C2=C\c1ccc[nH]1 = 44
CC[C@H](Nc1ncnc2[nH]cnc12)c1nc2cccc(F)c2c(=O)n1-c1ccccc1 = 65
NC(=O)c1ccc2nc(-c3ccc(C4(N)CCC4)cc3)c(-c3ccccc3)n2n1 = 60
CC(/C=C1\SC(=S)N(CCCC(=O)Nc2ccc(C(=O)O)c(O)c2)C1=O)=C\c1ccccc1 = 93

Please state Population Normal (%) for every molecule in the list that follows.
1. Oc1cccc(-c2nc(N3CCOCC3)c3oc4ncccc4c3n2)c1
2. CCCCCNC(=N)N/N=C/c1c[nH]c2ccc(OC)cc12.O=C(O)/C=C\C(=O)O [TEGASEROD MALEATE]
3. Cl.NC[C@@H]1O[C@H](C23CC4CC(CC(C4)C2)C3)Cc2c1ccc(O)c2O
4. CCOC(=O)CCNc1cc(N2CCc3ccccc3CC2)nc(-c2ccccn2)n1
5. Cc1c(Nc2ccc(S(=O)(=O)N3CCN(C)CC3)cc2F)nc2ccc(Nc3cnn(C4CC4)c3)cn2c1=O

## Output
1. 93
2. 94
3. 97
4. 73
5. 69

###

Test system: U2OS
assayComment: Multiplex assay against U2OS
Format: toxicity, cell-based
reportedConditions: human, 48 h, 10 µM, compound concentration 10 uM, replicate 1
measuredMetric: Population Pyknosed Nuclei (%)
Answers are plain numbers, in %.

Below, each entry is followed by its recorded Population Pyknosed Nuclei (%) result.
CC(C)C[C@H](NC(=O)[C@H](Cc1ccccc1)NC(=O)CNC(=O)CNC(=O)[C@@H](N)Cc1ccc(O)cc1)C(=O)O = 8
C=CC(=O)Nc1cc(-n2c(=O)ccc3cnc4ccc(-c5ccc(NS(C)(=O)=O)cc5)cc4c32)ccc1C = 12
CN1C(=O)[C@@H](NC(=O)c2cc3ccccc3[nH]2)N=C(c2ccccc2)c2ccccc21 [DEVAZEPIDE] = 41
N#CCNC(=O)c1ccc(-c2ccnc(Nc3ccc(N4CCOCC4)cc3)n2)cc1 = 43
c1ccc(-c2oc3ncnc(NC[C@@H]4CCCO4)c3c2-c2ccccc2)cc1 = 26

Please supply Population Pyknosed Nuclei (%) for each of the following items, keeping them in order.
1. CC(C)[C@H](CO)Nc1nc(Nc2cccc(Cl)c2)c2ncn(C(C)C)c2n1
2. CN1CCN(Cc2ccc(-c3cnc4[nH]cc(-c5ccc6[nH]ccc6c5)c4c3)cc2)CC1
3. CC(Cc1ccc(O)c(O)c1)C(C)Cc1ccc(O)c(O)c1 (stereo unspecified) [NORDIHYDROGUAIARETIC ACID]

## Output
1. 49
2. 66
3. 9

Dear colleague, could you send me Population Pyknosed Nuclei (%) for each of the items below? Thanks.
1. Cl.NC[C@@H]1O[C@H](C23CC4CC(CC(C4)C2)C3)Cc2c1ccc(O)c2O
2. CCCCN(CC)c1nc(C)nc2c1c(C)cn2-c1c(C)cc(C)cc1C.Cl

## Output
32
12

###

Test system: Fibroblast
assayComment: Multiplex assay against human fibroblast
Type: toxicity, cell-based
reportedConditions: 12 h, 10 µM, compound concentration 10 uM, replicate 1
measuredMetric: Population Healthy Nuclei (%)
Numbers only, in %.

Reference set, count: 3
CCCCN(CC)c1nc(C)nc2c1c(C)cn2-c1c(C)cc(C)cc1C.Cl = 37
Cl.Cn1c2c(c3ccc(Cl)c(Cl)c31)C(C#N)C1(CCNCC1)NC2=O (centres undefined) = 40
Cl.NC[C@@H]1O[C@H](C23CC4CC(CC(C4)C2)C3)Cc2c1ccc(O)c2O = 42

Could I get Population Healthy Nuclei (%) for every one of these entries?
1. CCOC(=O)CCNc1cc(N2CCc3ccccc3CC2)nc(-c2ccccn2)n1
2. Cc1ccc(S(=O)(=O)NC2c3ccccc3Oc3ccccc32)cc1
3. N#CCNC(=O)c1ccc(-c2ccnc(Nc3ccc(N4CCOCC4)cc3)n2)cc1
4. NC(=O)c1ccc2nc(-c3ccc(C4(N)CCC4)cc3)c(-c3ccccc3)n2n1
5. CC(C)C[C@H](NC(=O)[C@H](Cc1ccccc1)NC(=O)CNC(=O)CNC(=O)[C@@H](N)Cc1ccc(O)cc1)C(=O)O

## Output
50
41
28
51
39

## Input Can you look up Population Healthy Nuclei (%) on Fibroblast for CC(C)c1cc(Nc2nc(N3CCC[C@H](N)C3)ncc2C(N)=O)cc(C(C)C)n1 ?
## Output 37

###

Test system: Fibroblast
assayComment: Multiplex assay against human fibroblast
Format: toxicity, cell-based
reportedConditions: 12 h, 10 µM, compound concentration 10 uM, replicate 1
Task for the reader: assign each of the following compounds its reported Total Cell Count.

NC(=O)c1ccc2nc(-c3ccc(C4(N)CCC4)cc3)c(-c3ccccc3)n2n1 = 208

Working through the 4 compounds below one at a time, give Total Cell Count for each.
1. CC[C@@]1(O)C(=O)OCc2c1cc1n(c2=O)Cc2cc3ccccc3nc2-1
2. Cc1ccc(S(=O)(=O)NC2c3ccccc3Oc3ccccc32)cc1
3. CC(C)c1cc(Nc2nc(N3CCC[C@H](N)C3)ncc2C(N)=O)cc(C(C)C)n1
4. CCCc1cc(C)[nH]c(=O)c1CNC(=O)c1cc(-c2ccc(N3CCN(C(C)C)CC3)nc2)cc2c1cnn2C(C)C

## Output
198
218
96
143

For every listed record, write down its Total Cell Count.
1. N#CCNC(=O)c1ccc(-c2ccnc(Nc3ccc(N4CCOCC4)cc3)n2)cc1
2. CS(=O)(=O)N1CCCC(NC(=O)[C@H](CCC2CCCCC2)NC(=O)c2ccc(CNC(=O)c3cnc4ccccn34)cc2)C1 (some centres undefined)
3. CCCCN(CC)c1nc(C)nc2c1c(C)cn2-c1c(C)cc(C)cc1C.Cl
4. Cl.Cn1c2c(c3ccc(Cl)c(Cl)c31)C(C#N)C1(CCNCC1)NC2=O (centres undefined)

## Output
153
137 [middle of 4 runs]
76
482

###

Test system: HEK-293T
assayComment: Multiplex assay against HEK293T
Format: toxicity, cell-based
reportedConditions: human, 24 h, 10 µM, compound concentration 10 uM, replicate 2
Mark met for reported Population Fragmented Nuclei (%) of 10% or greater; mark not met for anything smaller.

CC(/C=C1\SC(=S)N(CCCC(=O)Nc2ccc(C(=O)O)c(O)c2)C1=O)=C\c1ccccc1 = not met
Oc1cccc(-c2nc(N3CCOCC3)c3oc4ncccc4c3n2)c1 = met
C[C@@H](Oc1cc(-n2cnc3ccc(CN4CCN(C)CC4)cc32)sc1C(N)=O)c1ccccc1C(F)(F)F = met
CC(C)[C@H](CO)Nc1nc(Nc2cccc(Cl)c2)c2ncn(C(C)C)c2n1 = not met

## Input Determine whether this compound has Population Fragmented Nuclei (%) no lower than 10%: CCOc1ccn(-c2ccc(F)cc2)c(=O)c1C(=O)Nc1ccc(Oc2ccnc(N)c2Cl)c(F)c1
## Output met

## Input What do you get for CC[C@@H]1C(=O)N(C)c2cnc(Nc3ccc(C(=O)NC4CCN(C)CC4)cc3OC)nc2N1C1CCCC1 ?
## Output met

## Input Do the same for N#CCNC(=O)c1ccc(-c2ccnc(Nc3ccc(N4CCOCC4)cc3)n2)cc1 please
## Output not met

## Input And the next one, Cc1c(Nc2ccc(S(=O)(=O)N3CCN(C)CC3)cc2F)nc2ccc(Nc3cnn(C4CC4)c3)cn2c1=O ?
## Output met

## Input Try this compound too: C=CC(=O)Nc1cc(-n2c(=O)ccc3cnc4ccc(-c5ccc(NS(C)(=O)=O)cc5)cc4c32)ccc1C
## Output not met

###

Would you mind telling me the reported Population Fragmented Nuclei (%) of each entry?
Test system: Fibroblast
assayComment: Multiplex assay against human fibroblast
Format: toxicity, cell-based
reportedConditions: 24 h, 1 µM, compound concentration 1 uM, replicate 1
Answers are plain numbers, in %.

A selection of reference data follows.
C=CC(=O)Nc1cc(-n2c(=O)ccc3cnc4ccc(-c5ccc(NS(C)(=O)=O)cc5)cc4c32)ccc1C = 23
CN(c1cc(C(F)(F)F)nc(OCCC(=O)O)n1)c1cccc2c1CCC2 = 26
CC(C)c1cc(Nc2nc(N3CCC[C@H](N)C3)ncc2C(N)=O)cc(C(C)C)n1 = 30
Cc1c(P(=S)(c2ccccc2)c2ccccc2)n2ccccc2[n+]1C/C=C/c1ccccc1.[Br-] = 22
CN1C(=O)[C@@H](NC(=O)c2cc3ccccc3[nH]2)N=C(c2ccccc2)c2ccccc21 [DEVAZEPIDE] = 25

# batch size: 5; output Population Fragmented Nuclei (%) per entry
1. Cl.Cn1c2c(c3ccc(Cl)c(Cl)c31)C(C#N)C1(CCNCC1)NC2=O (stereo not drawn)
2. N#Cc1cccc(C(=O)Nc2cc(-c3ccccc3)nn2-c2ccccc2)c1
3. Oc1cccc(-c2nc(N3CCOCC3)c3oc4ncccc4c3n2)c1
4. CC[C@H](Nc1ncnc2[nH]cnc12)c1nc2cccc(F)c2c(=O)n1-c1ccccc1
5. CC(Cc1ccc(O)c(O)c1)C(C)Cc1ccc(O)c(O)c1 (stereo not drawn) [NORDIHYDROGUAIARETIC ACID]

## Output
[38, 17, 30, 27, 20]

Hi, could you look up Population Fragmented Nuclei (%) for each item in my list?
1. CCCCCNC(=N)N/N=C/c1c[nH]c2ccc(OC)cc12.O=C(O)/C=C\C(=O)O [TEGASEROD MALEATE]
2. Cl.NC[C@@H]1O[C@H](C23CC4CC(CC(C4)C2)C3)Cc2c1ccc(O)c2O

## Output
1. 24
2. 32

Record Population Fragmented Nuclei (%) per entry; entries follow.
1. CC(C)[C@H](CO)Nc1nc(Nc2cccc(Cl)c2)c2ncn(C(C)C)c2n1
2. CCCc1cc(C)[nH]c(=O)c1CNC(=O)c1cc(-c2ccc(N3CCN(C(C)C)CC3)nc2)cc2c1cnn2C(C)C
3. N#CCNC(=O)c1ccc(-c2ccnc(Nc3ccc(N4CCOCC4)cc3)n2)cc1
4. CCOc1ccn(-c2ccc(F)cc2)c(=O)c1C(=O)Nc1ccc(Oc2ccnc(N)c2Cl)c(F)c1
5. NC(=O)c1ccc2nc(-c3ccc(C4(N)CCC4)cc3)c(-c3ccccc3)n2n1

## Output
1. 32
2. 30
3. 26
4. 27
5. 53
